// data source = patent US10766869B2

Consider the following compounds and their measured fold induction at 1 µM readings.
# System: primary rat mixed cortical cells
# assay-notes: In vitro myelination assay (MBP positive myelin strands, fold myelin pixels above background)
# Assay type: cell-based
# experimental-setup: Rattus norvegicus, 1.0 μM compound, relative to baseline of no added compound; read-out: Fold myelin pixels above background

# annotated cases, reported fold induction at 1 µM shown
Cc1cc(Nc2ncn(-c3cc(F)cc(F)c3)n2)cc(N2CC(C(=O)N(C)C)C2)c1    10 to 100
COc1ccc(-n2cnc(Nc3cc(C)cc(N4CCN(C5COC5)CC4)c3)n2)cc1F    10 to 100
Cc1cc(Nc2ncn(-c3ccnc(F)c3)n2)nc(N2CC(N3CCOCC3)C2)c1    10 to 100
Cc1cc(Nc2ncn(-c3ccc(F)c(F)c3)n2)cc(OC2CCCOC2)c1 (stereo not shown)    10 to 100
Cc1cc(Nc2ncn(-c3cc(F)cc(F)c3)n2)cc(N2CC(N3CCS(=O)(=O)CC3)C2)c1    10 to 100

Query (compound): Cc1cc(Nc2ncn(-c3cc(F)cc(F)c3)n2)c(F)c(N2CC3(CNC3)C2)c1 ; field requested: fold induction at 1 µM
1 to 10

How about Cc1cc(Nc2ncn(-c3cc(F)cc(N4CC[C@@H](F)C4)c3)n2)cc(N2CCN(C3COC3)CC2)c1 ?
100 to 1000

How about Cc1cc(Nc2ncn(-c3cc(F)cc(F)c3)n2)cc(N2CCN(C(=O)C3CC3)CC2)c1 ?
1000 to 10000

How about Fc1ccc(-n2cnc(Nc3cc(C(F)(F)F)cc(N4CCN(C5COC5)CC4)n3)n2)cc1 ?
10 to 100

How about Cc1cc(N2CC(N3CCOCC3)C2)cc(Nc2ncn(-c3cc(F)cc(F)c3)n2)c1C ?
10 to 100

How about FC(F)(F)c1cc(Nc2ncn(-c3ccccn3)n2)nc(N2CCN(C3COC3)CC2)c1 ?
1 to 10

How about Cc1cc(Nc2ncn(-c3cc(F)cc(F)c3)n2)cc(OCC2(C)COC2)c1 ?
100 to 1000

How about Cc1cc(Nc2ncn(-c3cc(F)cc(F)c3)n2)cc(N2CC(C)(O)C2)c1 ?
100 to 1000

How about Cc1cc(Nc2ncn(-c3cccc(Cl)n3)n2)cc(N2CCCC2)c1 ?
≤ 1

====

# System: primary rat mixed cortical cells
# assay-notes: In vitro myelination assay (MBP positive myelin strands, fold myelin pixels above background)
# Assay type: cell-based
# experimental-setup: Rattus norvegicus, 10.0 μM compound; read-out: Fold myelin pixels above background relative to baseline of no added compound
quantity-measured: fold induction at 10 µM

# annotated cases, reported fold induction at 10 µM shown
Fc1cc(Nc2ncn(-c3ccc(F)c(F)c3)n2)cc(N2CCN(C3COC3)CC2)c1    ≤ 1
Cc1cc(Nc2ncn(-c3cc(F)cc(F)c3)n2)cc(N2CCC(N3CCCC3)CC2)c1    10 to 100
Cc1cc(NCC2CCN(C3CCOCC3)CC2)cc(Nc2ncn(-c3cc(F)cc(F)c3)n2)c1    ≤ 1
COC1CCN(C2CCN(c3cc(C)cc(Nc4ncn(-c5cc(F)cc(F)c5)n4)c3)CC2)CC1    10 to 100
Cc1cc(NCC2CN(C(CO)CO)C2)cc(Nc2ncn(-c3cc(F)cc(F)c3)n2)c1    ≤ 1

Lab note: need fold induction at 10 µM for Fc1cc(Nc2ncn(-c3cccc(C(F)F)c3)n2)cc(N2CCN(C3COC3)CC2)c1 on primary rat mixed cortical cells, anyone have it?
≤ 1

How about [2H]C1([2H])N(C(=O)C2CC2)C([2H])([2H])C([2H])([2H])N(c2cc(C)cc(Nc3ncn(-c4cc(F)cc(F)c4)n3)c2)C1([2H])[2H] ?
1 to 10

How about CCN1CCCC(Nc2cc(C)cc(Nc3ncn(-c4cc(F)cc(F)c4)n3)c2)C1 (centres unmarked) ?
≤ 1

How about [2H]C1(N2CCN(c3cc(C)cc(Nc4ncn(-c5ccccc5)n4)c3)CC2)COC1 ?
≤ 1

How about Cc1cc(NCCN2CC(C)OCC2C)cc(Nc2ncn(-c3cc(F)cc(F)c3)n2)c1 (centres unmarked) ?
≤ 1

How about Cc1cc(Nc2ncn(-c3cc(F)cc(F)c3)n2)cc([C@]2(C)CN(C)C(=O)O2)c1 (single isomer, unassigned) ?
≤ 1

How about Cc1cc(Nc2ncn(-c3cc(F)cc(F)c3)n2)cc(N2CCC(N3CCC(O)C3)C2)c1 (centres unmarked) ?
≤ 1

How about Cc1cc(NCC(C)N2CC(C)OC(C)C2)cc(Nc2ncn(-c3cc(F)cc(F)c3)n2)c1 (centres unmarked) ?
1 to 10
